The entries below come with measured enrichment values attached.
B1: NF2 (merlin) isoform 7, human, full length (507 aa, lacks exons 2-3 = isoform-1 residues 39-121; exon-16 C-terminus), P35240-4 (parent)
chain: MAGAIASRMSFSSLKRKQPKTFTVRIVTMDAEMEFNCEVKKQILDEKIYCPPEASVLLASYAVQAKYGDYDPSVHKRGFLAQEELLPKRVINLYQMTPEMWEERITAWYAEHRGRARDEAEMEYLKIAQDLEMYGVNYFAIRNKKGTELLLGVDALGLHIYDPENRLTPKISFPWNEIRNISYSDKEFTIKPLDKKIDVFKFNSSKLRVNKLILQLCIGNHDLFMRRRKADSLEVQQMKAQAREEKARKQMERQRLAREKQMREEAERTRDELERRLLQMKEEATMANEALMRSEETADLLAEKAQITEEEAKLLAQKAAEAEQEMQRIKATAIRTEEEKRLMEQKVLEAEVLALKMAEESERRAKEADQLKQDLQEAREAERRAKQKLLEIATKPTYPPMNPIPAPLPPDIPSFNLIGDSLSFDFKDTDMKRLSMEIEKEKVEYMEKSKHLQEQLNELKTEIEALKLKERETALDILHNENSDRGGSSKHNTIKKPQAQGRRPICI

Variants of: B1
Test: reverse yeast two-hybrid deep mutational scan (rY2H-seq): NF2 isoform 7 mutant library as bait mated with wild-type prey strains; selection on medium lacking adenine for non-interacting pairs; NextSeq paired-end sequencing; enrichment vs …
Settings: with NF2 C-terminal domain (wild type; homomeric NF2-NF2 interaction), P35240; yeast diploids after mating (RBait_S3 x RPrey_S3), 30 °C, selection for reporter genes on NB agar; human ABL2 co-expressed as the kinase-dead K35M mutant …; HIGHER = WEAKER BINDING (the opposite of display enrichments): higher = stronger loss of interaction: reverse Y2H selects yeast in which bait and prey do NOT interact (growth without adenine), so a …; hits-only table; partner unresolved; scale: rY2H score; numbering: uniprot, sequence starts at 1

# residue_change, enrichment
records = [
    ("A406L", 10),
    ("E377L", 1.63),
    ("I160A", 1.61),
    ("P163L", 1.78),
    ("I507R", 2.16),
    ("D162L", 2.21),
    ("N482T", 2.43),
    ("A365E", 4.53),
    ("D118K", 4.21),
    ("Q261E", 1.7),
    ("H491L", 2.51),
    ("L475K", 4.06),
    ("S294K", 4.08),
    ("Y61L", 3.55),
    ("R258V", 1.38),
    ("L390A", 2.28),
    ("P413K", 1.53),
    ("E259V", 2.03),
    ("A368K", 5.98),
    ("L371A", 2.88),
    ("L158G", 1.55),
    ("D374A", 1.98),
]
